Entry source: ChEMBL document CHEMBL4689842

System: Fibroblast
experiment: Incucyte cell viability with human fibroblast; also: filed as whole numbers so only -1 and 0 and 1 occur
Assay type: toxicity, cell-based
setup conditions: 24 h, 10 µM, compound concentration 10 uM, replicate number 1, timepoint 24 hours
Quick list: Growth Rate per entry.
reported metric: Growth Rate

* Cl.Clc1cccc(COc2cncc(N3CCNCC3)n2)c1 | 1
* Cc1cc(C(C)(C)C)c(O)c(C)c1CC1=NCCN1.Cl [OXYMETAZOLINE HYDROCHLORIDE] | 1
* Cc1cnc(-c2cc(Cl)ccc2F)cc1-n1c(=O)n(CC(N)=O)c2ccccc21 | 1
* CC(C)N(CCCNC(=O)Nc1ccc(C(C)(C)C)cc1)C[C@H]1O[C@@H](n2cc(Br)c3c(N)ncnc32)[C@H](O)[C@@H]1O | 1
* O=C1CCc2cc(Nc3cc(OC4CCOCC4)c([N+](=O)[O-])cc3Cl)ccc2N1 | 0
* COc1cc2ncnc(Nc3ccc(F)c(Cl)c3)c2cc1OCCCN1CCOCC1 | 0
* CN(c1ccccc1CNc1nc(Nc2ccc3c(c2)CC(=O)N3)ncc1C(F)(F)F)S(C)(=O)=O | 0
* CC1CCN(CC[C@H]2CCCN2S(=O)(=O)c2cccc(O)c2)CC1.Cl | 1
* C[C@H](NC[C@H](O)CP(=O)(O)CC1CCCCC1)c1ccc(Cl)c(Cl)c1.Cl | 0

---

System: U2OS
experiment: Multiplex assay against U2OS
Assay type: toxicity, cell-based
setup conditions: human, 24 h, 1 µM, compound concentration 1 uM, replicate 1
reported metric: Population Healthy Nuclei (%)

• Cl.O=C(O)c1cc(-c2ccc(C3CCNCC3)cc2)c2ccc(-c3ccc(C(F)(F)F)cc3)cc2c1 = 81
• O=c1cc(N2CCOCC2)oc2c(-c3cccc4c3sc3ccccc34)cccc12 = 74
• CCc1nn(CCCN2CCN(c3cccc(Cl)c3)CC2)c(=O)n1CCOc1ccccc1.Cl [NEFAZODONE HYDROCHLORIDE] = 73
• C=CC(=O)Nc1ccc2[nH]c(=O)n(C3CCN(Cc4ccc(-c5nc6cc[nH]c(=O)c6cc5-c5ccccc5)cc4)CC3)c2c1 [Borussertib] = 93
• C[C@]12CC[C@@H]3c4ccc(O)cc4CC[C@H]3[C@@H]1CC[C@@H]2O [ESTRADIOL] = 87
• Cc1ccc(C)c(Oc2ccncc2C(=O)N2CCN(C3CC3)c3ccccc32)c1 = 76
• O=c1[nH]c2ccccc2n1C1CCN(Cc2ccc(-c3[nH]c4cc5ncnc5cc4nc3-c3ccccc3)cc2)CC1 = 83
• CCCSc1nc(N[C@@H]2C[C@H]2c2ccc(F)c(F)c2)c2nnn([C@@H]3C[C@H](OCCO)[C@@H](O)[C@H]3O)c2n1 [TICAGRELOR] = 84
• Cc1cccc(CN2CCN(C(c3ccccc3)c3ccc(Cl)cc3)CC2)c1.Cl.Cl (configuration not stated) = 86
• CC(C)(C)NC[C@H](O)COc1nsnc1N1CCOCC1 [TIMOLOL] = 82
• CC1=C(C(=O)Nc2cc3cn[nH]c3cc2F)C(c2ccc(C(F)(F)F)cc2)CC(=O)N1 (configuration not stated) = 82
• CC(C)c1noc(N2CCC(COc3ccc(-c4ccc(S(C)(=O)=O)cc4)nc3)CC2)n1 [GSK-1292263] = 73
• COc1cc2ncn(-c3cc(OCc4ccccc4C(F)(F)F)c(C(N)=O)s3)c2cc1OC [GW843682X] = 76
• CN1CCN(Cc2ccc(Nc3ncc(Cl)c(Nc4ccccc4S(=O)(=O)N(C)C)n3)cc2)CC1 [DUBERMATINIB] = 45
• CCOC(=O)Nc1cc(-c2ccc(C)c(NS(C)(=O)=O)c2)nn2c(C)nnc12 = 88
• CNC(=O)Nc1ccc(-c2nc(N3CC4CCC(C3)O4)c3cnn(C4CCC5(CC4)OCCO5)c3n2)cc1 = 52
• CNC(=O)Nc1ccc2c(c1)[C@@]1(CC2)OC(=O)N(CC(=O)N(Cc2ccc(F)cc2)[C@@H](C)C(F)(F)F)C1=O [A-486] = 89
